Assay: In vitro-in vivo extrapolation (IVIVE) to estimate Css, rat
Details: Rat; non-metabolic, GFR x fub; read-out: Clrenal (renal clearance) (converted)
Measured parameter: CL renal (mL/min)
Give the value in mL/min but do not write mL/min after it.

Using the record for O=S(=O)(O)C(F)(F)C(F)(F)C(F)(F)C(F)(F)C(F)(F)C(F)(F)F , state its measured CL renal. 0.00167

New cases:
Using the record for NS(=O)(=O)C(F)(F)C(F)(F)C(F)(F)C(F)(F)C(F)(F)C(F)(F)F [PFHxSA, Perfluorohexanesulfonamide] , state its measured CL renal. 0.00167

====

Assay: Liver-to-plasma partitioning (Kp)
Type: in vivo, rat
Details: male, Sprague Dawley (Crl:CD(SD)), rat, liver and plasma, po, 1 mg/kg/day, PFHxSA 1 mg/kg/day oral 5 days; male; individual rats; read-out: Male Partition Coefficient (Kp), liver-plasma
Measured parameter: Kp at 120 h

Using the record for NS(=O)(=O)C(F)(F)C(F)(F)C(F)(F)C(F)(F)C(F)(F)C(F)(F)F [PFHxSA, Perfluorohexanesulfonamide] , state its measured Kp at 120 h. 0.166

====

Test: Plasma dosimetry of PFHxSA and PFHxS by targeted LC/MS/MS
Type: in vivo, rat
Settings: male, Sprague Dawley (Crl:CD(SD)), rat, plasma, oral, 0.01 mg/kg/day, PFHxSA 0.01 mg/kg/day oral 5 days; male rats; single rat above the LOQ; read-out: PFHxSA Male Plasma Conc.
Measured parameter: concentration at 24 h
Report field: quantity (unit follows the number).

Using the record for NS(=O)(=O)C(F)(F)C(F)(F)C(F)(F)C(F)(F)C(F)(F)C(F)(F)F [PFHxSA, Perfluorohexanesulfonamide] , state its measured concentration at 24 h. 102 nM

====

Test: Liver dosimetry of PFHxSA and PFHxS by targeted LC/MS/MS
Assay type: in vivo, rat
Conditions: male, Sprague Dawley (Crl:CD(SD)), rat, liver, oral, 10 mg/kg/day, PFHxSA 10 mg/kg/day oral 5 days; male rats; mean ± SD; read-out: PFHxSA Male Liver Conc.
Measured parameter: concentration at 24 h (µM)
Give the value in µM but do not write µM after it.

Using the record for NS(=O)(=O)C(F)(F)C(F)(F)C(F)(F)C(F)(F)C(F)(F)C(F)(F)F [PFHxSA, Perfluorohexanesulfonamide] , state its measured concentration at 24 h. 10.6

====

Test: Liver-to-plasma partitioning (Kp)
Assay type: in vivo, rat
Settings: male, Sprague Dawley (Crl:CD(SD)), rat, liver and plasma, po, 3 mg/kg/day, PFHxSA 3 mg/kg/day oral 5 days; male rats; mean ± SD; read-out: PFHxSA liver-to-plasma Kp, Male Rats
Measured parameter: Kp at 120 h
Just the number, please.

Using the record for NS(=O)(=O)C(F)(F)C(F)(F)C(F)(F)C(F)(F)C(F)(F)C(F)(F)F [PFHxSA, Perfluorohexanesulfonamide] , state its measured Kp at 120 h. 0.186

====

Test: Liver-to-plasma partitioning (Kp)
Type: in vivo, rat
Conditions: female, Sprague Dawley (Crl:CD(SD)), rat, liver and plasma, po, 30 mg/kg/day, PFHxSA 30 mg/kg/day oral 5 days; female rats; mean ± SD; read-out: PFHxSA liver-to-plasma Kp, Female Rats
Measured parameter: Kp at 120 h

Using the record for NS(=O)(=O)C(F)(F)C(F)(F)C(F)(F)C(F)(F)C(F)(F)C(F)(F)F [PFHxSA, Perfluorohexanesulfonamide] , state its measured Kp at 120 h. 0.148

From: paper PMC12737022
